- tested.target: UniProt Q14832
- Sequence (Q14832 whole entry): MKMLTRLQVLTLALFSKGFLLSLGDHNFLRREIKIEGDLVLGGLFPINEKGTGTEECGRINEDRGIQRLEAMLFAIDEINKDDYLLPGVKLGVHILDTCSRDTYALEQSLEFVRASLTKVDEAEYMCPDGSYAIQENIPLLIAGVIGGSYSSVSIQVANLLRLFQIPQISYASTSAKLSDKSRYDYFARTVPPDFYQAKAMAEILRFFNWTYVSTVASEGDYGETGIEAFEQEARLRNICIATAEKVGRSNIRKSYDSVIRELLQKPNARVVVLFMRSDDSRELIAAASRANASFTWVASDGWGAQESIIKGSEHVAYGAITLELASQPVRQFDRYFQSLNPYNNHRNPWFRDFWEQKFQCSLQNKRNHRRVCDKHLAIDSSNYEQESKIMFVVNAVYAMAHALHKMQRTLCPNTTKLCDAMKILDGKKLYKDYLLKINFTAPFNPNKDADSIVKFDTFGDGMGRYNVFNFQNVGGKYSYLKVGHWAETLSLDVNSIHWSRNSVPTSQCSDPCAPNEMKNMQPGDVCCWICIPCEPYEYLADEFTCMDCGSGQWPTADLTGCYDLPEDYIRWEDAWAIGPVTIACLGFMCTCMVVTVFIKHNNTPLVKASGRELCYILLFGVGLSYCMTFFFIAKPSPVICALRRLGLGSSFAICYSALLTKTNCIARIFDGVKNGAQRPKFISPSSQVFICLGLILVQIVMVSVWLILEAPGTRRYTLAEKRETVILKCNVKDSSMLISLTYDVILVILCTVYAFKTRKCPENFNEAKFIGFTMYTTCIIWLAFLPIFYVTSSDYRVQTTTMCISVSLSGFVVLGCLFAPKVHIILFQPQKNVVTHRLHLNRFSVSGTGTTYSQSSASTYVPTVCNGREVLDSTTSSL
- assay.text: Ability to block 1S,3R-ACPD-induced inhibition of forskolin stimulated cyclic-AMP in non-neuronal cell line expressing human Metabotropic glutamate receptor 3
- Type: functional
assay.metric: pIC50
Kindly note that pIC50 refers to -log10 of the concentration in mol/L and answer with the value alone.

The cases that follow already have their pIC50 on record.
compound: NC(CCC12CC3CC(CC(C3)C1)C2)(C(=O)O)[C@H]1C[C@@H]1C(=O)O (stereo partly drawn)
pIC50: 6.12
--
compound: NC(CC1CCCCC1)(C(=O)O)[C@H]1C[C@@H]1C(=O)O (stereo partly drawn)
pIC50: 5.85

--- query ---
Query: What does the data say about its pIC50? Entry: N[C@@](CC(c1ccccc1)c1ccccc1)(C(=O)O)[C@H]1C[C@@H]1C(=O)O
Reply: 6.55
